Target: human GLP1R (Homo sapiens, UniProt P43220)
Sequence (P43220 24-463): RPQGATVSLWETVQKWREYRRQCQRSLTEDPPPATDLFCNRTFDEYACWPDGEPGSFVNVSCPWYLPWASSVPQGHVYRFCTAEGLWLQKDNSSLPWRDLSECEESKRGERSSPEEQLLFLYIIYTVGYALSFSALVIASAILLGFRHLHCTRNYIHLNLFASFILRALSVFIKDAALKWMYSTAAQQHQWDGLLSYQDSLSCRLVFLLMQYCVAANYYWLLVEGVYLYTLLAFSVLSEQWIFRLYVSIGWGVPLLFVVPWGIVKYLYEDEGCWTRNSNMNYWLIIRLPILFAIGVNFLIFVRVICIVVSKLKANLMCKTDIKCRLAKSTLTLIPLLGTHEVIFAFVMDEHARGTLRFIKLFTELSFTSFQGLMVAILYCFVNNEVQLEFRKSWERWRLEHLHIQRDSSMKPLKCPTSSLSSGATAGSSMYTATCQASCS
Experiment: Luciferase reporter assay, HEK293/CRE-Luc/hGLP1R (Example 17)
Type: cell-based
Parameters: engineered to express full-length human GLP1R, cynomolgus GLP1R; expressed in transfected cells; host or cells: HEK293/CRE-Luc
Settings: HEK293/CRE-Luc/hGLP1R; payloads and linker-payloads; experiments A-E, M2361 repeated in each; read-out: EC50
Where a SMILES comes first, the peptide text is derived from it. [ ]: non-standard residue; d: D form. Bip(2'-Et,4'-O(CH2)4NH2) = CCc1cc(OCCCCN)ccc1-c1ccc(C[C@H](N)C(=O)O)cc1; Nva(5-(3,5-Me2Ph)) = Cc1cc(C)cc(CCC[C@H](N)C(=O)O)c1; Ala(1H-tetrazol-5-yl) = N[C@@H](Cc1nnn[nH]1)C(=O)O; αMePhe(2-F) = C[C@](N)(Cc1ccccc1F)C(=O)O
experimental.readout: pEC50
Scale note: pEC50 = -log10(concentration in M).

Q: Using the record for CCc1cc(OCCCCN)ccc1-c1ccc(C[C@H](NC(=O)[C@H](CC(=O)O)NC(=O)[C@H](CO)NC(=O)[C@@H](NC(=O)[C@](C)(Cc2ccccc2F)NC(=O)[C@@H](NC(=O)CNC(=O)[C@H](Cc2nn[nH]n2)NC(=O)[C@H](C)NC(=O)[C@@H](N)Cc2cnc[nH]2)[C@@H](C)O)[C@@H](C)O)C(=O)N[C@@H](CCCc2cc(C)cc(C)c2)C(N)=O)cc1 [P10] (H-HA[Ala(1H-tetrazol-5-yl)]GT[αMePhe(2-F)]TSD[Bip(2'-Et,4'-O(CH2)4NH2)][Nva(5-(3,5-Me2Ph))]-NH2) , report its pEC50.
Result: 10.85
